Documented log10 Ki across a set of molecules
- TARGET_UNDER_TEST: Glutamate NMDA receptor
- ASSAY_TEXT: In vitro radioligand binding assay for the N-methyl-D-aspartate glutamate receptor is performed using [3H]MK-801 and rat brain membrane suspensions
Log10 applied to Ki; unit prior to transform: nM.

CCc1cccc(NC(=N)Nc2c(Cl)cccc2Cl)c1	2.12
CCc1cccc(NC(=N)Nc2ccc(Cl)cc2Cl)c1	2.15
CCc1cccc(NC(=N)Nc2cccc(Cl)c2Cl)c1	2.19
CCc1cccc(N(C)C(=N)Nc2cc(CC)cc(CC)c2F)c1	1.99
CCc1cccc(NC(=N)Nc2ccc(Cl)cc2)c1	2.87

Query: What reported log10 Ki corresponds to "CCc1cccc(NC(=N)Nc2ccccc2C(C)C)c1" on Glutamate NMDA receptor?
Result: 2.36

Query: Also, "CCc1cccc(NC(=N)Nc2cc(Cl)cc(Cl)c2)c1" please.
Result: 2.06

Query: Also, "CCc1cccc(NC(=N)Nc2ccccc2Cl)c1" please.
Result: 2.40

Query: Also, "CCc1cccc(N(C)C(=N)Nc2cccc(Br)c2)c1" please.
Result: 1.91

Query: Also, "CCc1cccc(N(C)C(=N)Nc2cccc(Cl)c2Cl)c1" please.
Result: 2.06

Query: Also, "CCc1cccc(N(C)C(=N)N(C)c2cc(Cl)ccc2Cl)c1" please.
Result: 1.86

Query: Also, "CCc1cccc(NC(=N)Nc2cc(SC)cc(CC)c2Cl)c1" please.
Result: 1.07

Query: Also, "CCc1cccc(NC(=N)Nc2cc(CC)cc(CC)c2Br)c1" please.
Result: 1.46
